Origin of the recorded values: patent US7935722B2

Listed next: entries and their corresponding Ki.
tested.on: human AR (androgen receptor) (Homo sapiens, UniProt P10275)
Construct: expressed in transfected cells; host or cells: 293 cells (293-AR lysate)
Sequence (P10275 whole entry): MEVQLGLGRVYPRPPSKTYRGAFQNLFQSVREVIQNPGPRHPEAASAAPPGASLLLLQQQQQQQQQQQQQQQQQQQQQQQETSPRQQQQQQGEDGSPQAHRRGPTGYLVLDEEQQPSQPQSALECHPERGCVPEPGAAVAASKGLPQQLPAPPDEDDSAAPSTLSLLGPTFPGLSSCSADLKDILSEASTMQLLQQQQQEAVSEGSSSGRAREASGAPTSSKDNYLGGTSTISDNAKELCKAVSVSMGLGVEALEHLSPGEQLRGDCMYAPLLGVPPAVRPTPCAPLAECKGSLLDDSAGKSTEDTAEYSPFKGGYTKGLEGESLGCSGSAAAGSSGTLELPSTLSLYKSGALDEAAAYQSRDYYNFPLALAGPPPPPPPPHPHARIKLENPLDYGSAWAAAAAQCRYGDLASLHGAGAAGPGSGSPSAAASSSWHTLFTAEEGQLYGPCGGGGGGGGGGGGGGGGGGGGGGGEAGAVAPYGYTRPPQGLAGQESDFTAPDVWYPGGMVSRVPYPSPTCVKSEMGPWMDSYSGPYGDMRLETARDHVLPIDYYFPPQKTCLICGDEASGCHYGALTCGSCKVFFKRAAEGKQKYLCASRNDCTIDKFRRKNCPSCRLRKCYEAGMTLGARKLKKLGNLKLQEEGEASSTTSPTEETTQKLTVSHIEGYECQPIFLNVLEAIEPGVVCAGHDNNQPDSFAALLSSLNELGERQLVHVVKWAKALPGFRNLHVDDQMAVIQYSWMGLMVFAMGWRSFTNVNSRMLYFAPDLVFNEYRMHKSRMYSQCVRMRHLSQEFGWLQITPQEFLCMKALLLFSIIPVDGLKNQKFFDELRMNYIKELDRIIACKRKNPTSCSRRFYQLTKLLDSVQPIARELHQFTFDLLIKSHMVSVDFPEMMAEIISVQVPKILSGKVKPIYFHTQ
protocol.details: Steroid hormone nuclear receptor binding assay, AR binding
assay.context: average of n trials; read-out: AR binding Ki
# value in µM; strip the unit string

Req: Request - read-out Ki | tested on human AR (androgen receptor) (Homo sapiens, UniProt P10275) | molecule CC(C)C(=O)NC1CCc2c(c3cc(-c4ccc(N)nc4)ccc3n2Cc2cccc(F)c2)C1 (stereo not shown)
Resp: 0.0318

Req: Request - read-out Ki | tested on human AR (androgen receptor) (Homo sapiens, UniProt P10275) | molecule CC(C)C(=O)NC1CCc2c(c3cc(Cl)ccc3n2Cc2ccccc2N)C1 (stereo not shown)
Resp: 0.0082

Req: Request - read-out Ki | tested on human AR (androgen receptor) (Homo sapiens, UniProt P10275) | molecule COC(=O)NC1CCc2c(c3cc(OC(F)(F)F)ccc3n2Cc2cccc(F)c2)C1 (stereo not shown)
Resp: 0.037

Req: Request - read-out Ki | tested on human AR (androgen receptor) (Homo sapiens, UniProt P10275) | molecule CC(C)C(=O)N[C@@H]1CCc2c(c3cc(C(=O)O)ccc3n2Cc2cccc(F)c2)C1
Resp: 0.952
